Test system: crabgrass, large (large crabgrass, Digitaria sanguinalis)
TEST: Test C greenhouse herbicide test, pre- and postemergence
Format: in vivo
ASSAY_CONTEXT: Preemergence, 250 g ai/ha; scale 0 to 100, 0 no effect, 100 complete control
Listing: Crabgrass, Large plant response rating of selected molecules

Name the recorded Crabgrass, Large plant response rating of Cc1ccc2ccccc2c1-c1c(O)c(Br)nn(C)c1=O , assay system crabgrass, large (large crabgrass, Digitaria sanguinalis).
95

Name the recorded Crabgrass, Large plant response rating of Cn1nc(Br)c(O)c(-c2cccc3ccccc23)c1=O , assay system crabgrass, large (large crabgrass, Digitaria sanguinalis).
60

Name the recorded Crabgrass, Large plant response rating of CCCC(=O)Oc1c(C)nn(C)c(=O)c1-c1c(C)sc2ccc(C)cc12 , assay system crabgrass, large (large crabgrass, Digitaria sanguinalis).
80

Please look at the following molecule next.
Name the recorded Crabgrass, Large plant response rating of COC(=O)Oc1c(C)nn(C)c(=O)c1-c1c(C)sc2ccc(C)cc12 , assay system crabgrass, large (large crabgrass, Digitaria sanguinalis).
75

====

Tested on: barnyardgrass (Echinochloa crus-galli)
TEST: Test A greenhouse herbicide test, pre- and postemergence
Type: in vivo
ASSAY_CONTEXT: Postemergence, 500 g ai/ha; 0 to 100 scale, 0 is no effect, 100 is complete control
MEASURED_PARAMETER: Barnyardgrass plant response rating
# print the numeric value only

Sample records with Barnyardgrass plant response rating:
Please give the documented Barnyardgrass plant response rating of COC(=O)Oc1c(C)nn(C)c(=O)c1-c1c(C)sc2ccc(C)cc12
80

Please give the documented Barnyardgrass plant response rating of Cn1nc(Br)c(O)c(-c2cccc3ccccc23)c1=O
100

Please give the documented Barnyardgrass plant response rating of Cc1ccc2ccccc2c1-c1c(OC(=O)OC(C)C)c(C)nn(C)c1=O
60

Please give the documented Barnyardgrass plant response rating of CCc1sc2ccc(C)cc2c1-c1c(O)c(C)nn(C)c1=O
80

***
Please give the documented Barnyardgrass plant response rating of Cc1cc2ccccc2c(-c2c(O)c(C)nn(C)c2=O)c1C
90

Please give the documented Barnyardgrass plant response rating of CCc1sc2c(C)cc(C)cc2c1-c1c(O)c(C)nn(C)c1=O
100

Please give the documented Barnyardgrass plant response rating of Cc1nn(C)c(=O)c(-c2c(Cl)n(C)c3ccccc23)c1O
10

Please give the documented Barnyardgrass plant response rating of CCC(=O)Oc1c(C)nn(C)c(=O)c1-c1c(C)ccc2ccccc12
30

Please give the documented Barnyardgrass plant response rating of Cc1ccc2sc(Br)c(-c3c(O)c(C)nn(C)c3=O)c2c1
80

====

Tested on: soybean (Glycine max)
TEST: Test C greenhouse herbicide test, pre- and postemergence
Assay type: in vivo
ASSAY_CONTEXT: postemergence, 62 g ai/ha; scale 0 to 100, 0 no effect, 100 complete control
MEASURED_PARAMETER: Soybean plant response rating
# print the numeric value only

Please give the documented Soybean plant response rating of CCc1sc2c(C)cc(C)cc2c1-c1c(O)c(C)nn(C)c1=O
0

Please give the documented Soybean plant response rating of Cc1cc(C)c2sc(C)c(-c3c(O)c(C)nn(C)c3=O)c2c1
0

Please give the documented Soybean plant response rating of Cc1ccc2sc(Br)c(-c3c(O)c(C)nn(C)c3=O)c2c1
0

***
Please give the documented Soybean plant response rating of Cc1ccc2ccccc2c1-c1c(OC(=O)OC(C)C)c(C)nn(C)c1=O
15

Please give the documented Soybean plant response rating of COC(=O)Oc1cnn(C)c(=O)c1-c1c(C)sc2ccccc12
0
